measurement_target: Focal adhesion kinase 1 (Homo sapiens, UniProt Q05397)
Sequence (Q05397 whole entry, the tested form may be a part): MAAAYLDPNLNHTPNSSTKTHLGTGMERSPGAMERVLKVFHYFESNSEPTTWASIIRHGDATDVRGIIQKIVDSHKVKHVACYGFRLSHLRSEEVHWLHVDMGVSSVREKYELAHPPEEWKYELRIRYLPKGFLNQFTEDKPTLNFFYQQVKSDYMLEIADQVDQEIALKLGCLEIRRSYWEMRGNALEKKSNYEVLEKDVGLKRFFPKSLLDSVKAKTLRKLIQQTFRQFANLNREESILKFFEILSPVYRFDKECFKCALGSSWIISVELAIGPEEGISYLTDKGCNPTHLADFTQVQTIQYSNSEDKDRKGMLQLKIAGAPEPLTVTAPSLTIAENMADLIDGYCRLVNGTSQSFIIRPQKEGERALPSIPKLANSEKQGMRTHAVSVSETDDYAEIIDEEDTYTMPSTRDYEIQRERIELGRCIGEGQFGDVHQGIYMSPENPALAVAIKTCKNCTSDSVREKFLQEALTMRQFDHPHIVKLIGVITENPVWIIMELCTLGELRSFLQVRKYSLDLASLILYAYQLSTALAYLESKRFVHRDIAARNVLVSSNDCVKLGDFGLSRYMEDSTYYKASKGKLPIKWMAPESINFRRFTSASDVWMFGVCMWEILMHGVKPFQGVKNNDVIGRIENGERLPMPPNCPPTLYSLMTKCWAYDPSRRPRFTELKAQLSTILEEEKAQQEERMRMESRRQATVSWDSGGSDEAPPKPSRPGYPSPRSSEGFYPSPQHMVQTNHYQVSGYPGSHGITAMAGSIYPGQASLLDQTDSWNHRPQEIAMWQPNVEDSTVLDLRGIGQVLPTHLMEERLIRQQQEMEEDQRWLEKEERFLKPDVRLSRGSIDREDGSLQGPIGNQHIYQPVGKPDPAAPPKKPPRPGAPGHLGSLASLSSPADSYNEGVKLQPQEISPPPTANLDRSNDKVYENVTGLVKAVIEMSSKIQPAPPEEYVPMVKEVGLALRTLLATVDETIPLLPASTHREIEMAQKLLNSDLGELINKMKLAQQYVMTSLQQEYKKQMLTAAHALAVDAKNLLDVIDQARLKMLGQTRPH
run_description: Inhibition of recombinant human FAK (393 to 698 residues) using poly (4:1 Glu, Tyr) peptide as substrate incubated for 60 mins in presence of ATP by ADP-Glo reagent based luminescent assay
measured_parameter: pIC50
By convention, pIC50 is the negative base-10 log of a molar concentration.

[ask] Entry `CCOP(=O)(Cc1ccc(Nc2ncc(Cl)c(Nc3ccccc3S(=O)(=O)C(C)C)n2)cc1)OCC` : reported pIC50 = ?
[reply] 9.50

====

System: KM3/BTZ
run_description: cells
assay_setup: Homo sapiens, 72 h
Description: Antiproliferative activity against bortezomib- resistant human KM3/BTZ cells assessed as inhibition of cell growth incubated for 72 hrs by CCK-8 assay
measured_parameter: pIC50
By convention, pIC50 is the negative base-10 log of a molar concentration.

[ask] Entry `CCOC(=O)C1CCN(Cc2ccc(Nc3ncc(Cl)c(Nc4ccccc4S(=O)(=O)C(C)C)n3)cc2)CC1` : reported pIC50 = ?
[reply] 6.58

[ask] Moving on to `CC(C)S(=O)(=O)c1ccccc1Nc1nc(Nc2ccc(CN3CCC(C(=O)NCCCCCC(=O)NO)CC3)cc2)ncc1Cl`
[reply] 5.54

[ask] Moving on to `COC(=O)CCCCCNC(=O)C1CCN(c2ccc(Nc3ncc(Cl)c(Nc4ccccc4S(=O)(=O)C(C)C)n3)cc2)CC1`
[reply] 5.01

[ask] Moving on to `CCOC(=O)C1CCN(CC(=O)Nc2ccc(Nc3ncc(Cl)c(Nc4ccccc4S(=O)(=O)C(C)C)n3)cc2)CC1`
[reply] 5.64

Origin of the recorded values: ChEMBL document CHEMBL5107989
